Reported IC50 by item:
- study target: CRISPR/Cas9 from Streptococcus pyogenes (SpyCas9) (Streptococcus pyogenes serotype M1)
- assay overview: cell-based

Example results:
- compound: "O=S(=O)(/C=C/c1ccccc1)c1ccc(Cl)cc1 [Compound 893]"
  data value: "> 100 µM"
- compound: "CCOCCNS(=O)(=O)/C=C/c1ccccc1 [Compound 867]"
  data value: "> 100 µM"
- compound: "O=C(/C=C/c1ccccc1)c1ccc(Cl)cc1 [Compound 105]"
  data value: "10 to 100 µM"
- compound: "COc1ccc(COCCCCC2=C3CCC(C)CC3CC2=O)cc1 (centres unmarked) [Compound 897]"
  data value: "> 100 µM"
- compound: "CCN(CC)S(=O)(=O)/C=C/c1ccccc1 [Compound 868]"
  data value: "> 100 µM"
- compound: "O=C(/C=C/c1ccccc1)N1CCCC1 [Compound 855]"
  data value: "> 100 µM"

Consider the compound shown here: CCC1(O)C(=O)OCc2c1cc1n(c2=O)Cc2cc3ccccc3nc2-1 (centres unmarked) [Compound 874] What is its recorded IC50?
> 100 µM

Consider the compound shown here: O=C(/C=C/c1ccc(Br)cc1)c1ccccc1 [Compound 101] What is its recorded IC50?
10 to 100 µM

Consider the compound shown here: O=C(/C=C\n1cnc(-c2cc(C(F)(F)F)cc(C(F)(F)F)c2)n1)NNc1ccccn1 [Compound 901] What is its recorded IC50?
1 to 10 µM

Consider the compound shown here: CC(=O)/C=C/c1cc2c(cc1Br)OCO2 [Compound 889] What is its recorded IC50?
> 100 µM

Consider the compound shown here: COc1ccc(/C=C/C(=O)c2ccccc2)cc1 [Compound 111] What is its recorded IC50?
10 to 100 µM

* * *

- study target: CRISPR/Cas9 from Streptococcus pyogenes (SpyCas9) (Streptococcus pyogenes serotype M1, UniProt Q99ZW2)
- Sequence (Q99ZW2 whole entry): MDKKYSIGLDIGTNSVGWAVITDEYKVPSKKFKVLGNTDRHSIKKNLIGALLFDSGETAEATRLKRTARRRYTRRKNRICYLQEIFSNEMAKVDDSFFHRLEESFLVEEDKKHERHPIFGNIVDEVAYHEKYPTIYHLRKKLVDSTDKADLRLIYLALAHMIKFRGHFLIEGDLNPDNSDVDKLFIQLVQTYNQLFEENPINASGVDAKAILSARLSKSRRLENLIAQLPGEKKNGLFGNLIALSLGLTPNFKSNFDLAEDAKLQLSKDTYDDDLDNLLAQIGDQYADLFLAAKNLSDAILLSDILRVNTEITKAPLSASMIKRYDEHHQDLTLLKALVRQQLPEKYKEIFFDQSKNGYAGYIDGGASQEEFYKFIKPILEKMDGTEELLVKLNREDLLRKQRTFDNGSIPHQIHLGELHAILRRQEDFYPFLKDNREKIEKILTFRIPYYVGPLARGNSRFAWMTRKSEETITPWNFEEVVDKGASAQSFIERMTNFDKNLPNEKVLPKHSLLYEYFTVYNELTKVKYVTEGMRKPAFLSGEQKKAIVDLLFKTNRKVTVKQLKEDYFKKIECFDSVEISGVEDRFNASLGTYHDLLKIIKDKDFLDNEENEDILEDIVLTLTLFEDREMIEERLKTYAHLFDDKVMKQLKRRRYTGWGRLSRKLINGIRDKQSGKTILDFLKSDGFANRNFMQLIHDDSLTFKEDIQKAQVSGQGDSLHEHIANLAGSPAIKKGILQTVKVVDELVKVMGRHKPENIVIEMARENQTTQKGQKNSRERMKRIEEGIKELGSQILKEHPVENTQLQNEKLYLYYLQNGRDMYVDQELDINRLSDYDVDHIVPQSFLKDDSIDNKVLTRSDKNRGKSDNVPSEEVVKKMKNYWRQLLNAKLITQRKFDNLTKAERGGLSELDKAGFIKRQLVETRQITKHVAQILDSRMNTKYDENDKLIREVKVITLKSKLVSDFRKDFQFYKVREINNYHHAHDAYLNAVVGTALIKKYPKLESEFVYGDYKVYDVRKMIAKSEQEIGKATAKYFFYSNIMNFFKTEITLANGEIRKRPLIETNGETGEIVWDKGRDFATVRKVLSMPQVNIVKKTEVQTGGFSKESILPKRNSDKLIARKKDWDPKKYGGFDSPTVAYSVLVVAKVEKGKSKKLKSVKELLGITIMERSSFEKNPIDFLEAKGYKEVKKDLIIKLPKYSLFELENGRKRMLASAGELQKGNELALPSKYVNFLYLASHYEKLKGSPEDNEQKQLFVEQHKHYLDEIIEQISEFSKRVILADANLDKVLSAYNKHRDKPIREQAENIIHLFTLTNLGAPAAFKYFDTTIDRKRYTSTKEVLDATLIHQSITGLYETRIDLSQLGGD
- assay overview: cell-based
reported property: IC50

- molecule: "NS(=O)(=O)/C=C/c1ccccc1"
  data value: "> 100 µM"
- molecule: "O=c1c(O)c(-c2ccc(O)c(O)c2)oc2cc(O)cc(O)c12"
  data value: "> 100 µM"
- molecule: "O=C(/C=C/c1ccccc1)Nc1c(F)cccc1F"
  data value: "> 100 µM"

Consider the molecule shown here: O=C(/C=C/c1ccccc1)Nc1cccnc1 What is its recorded IC50?
> 100 µM

* * *

- study target: CRISPR/Cas9 from Streptococcus pyogenes (SpyCas9) (Streptococcus pyogenes serotype M1, UniProt Q99ZW2)
- assay overview: cell-based
pIC50: −log10 of the molar value.
Reported pIC50 by item:

Example results:
- compound: "C=CS(=O)(=O)c1ccccc1"
  pIC50: "4.00 to 5.00"
- compound: "COc1cc(-c2ncn(/C=C\\C(=O)OC(C)C)n2)cc(C(F)(F)F)c1"
  pIC50: "5.00 to 6.00"
- compound: "O=C1CC(c2ccccc2O)Oc2ccccc21 (stereo not drawn)"
  pIC50: "< 4.00"
- compound: "O=C(/C=C/c1cccc(Br)c1)c1cccc(Br)c1"
  pIC50: "< 4.00"
- compound: "CN(c1ccccc1)S(=O)(=O)F"
  pIC50: "< 4.00"

Consider the compound shown here: C=CC(=O)OC What is its recorded pIC50?
< 4.00

Consider the compound shown here: CCN(CC)C(=O)/C=C/c1ccccc1 What is its recorded pIC50?
< 4.00

Consider the compound shown here: CC(C)(C)OC(=O)N1CCN(S(=O)(=O)/C=C/c2ccccc2)CC1 What is its recorded pIC50?
< 4.00

* * *

- study target: CRISPR/Cas9 from Streptococcus pyogenes (SpyCas9) (Streptococcus pyogenes serotype M1, UniProt Q99ZW2)
- assay overview: cell-based
reported property: IC50

- molecule: "CC1CC(C)CN(S(=O)(=O)/C=C/c2ccccc2)C1 (centres unmarked)"
  reported property: "IC50"
  data value: "> 100 µM"
- molecule: "CC1=CC(=O)c2c(O)cccc2C1=O"
  reported property: "IC50"
  data value: "1 to 10 µM"
- molecule: "COc1cc(/C=C/C(=O)CC(=O)/C=C/c2ccc(O)c(OC)c2)ccc1O"
  reported property: "IC50"
  data value: "10 to 100 µM"
- molecule: "CNC(=O)c1ccccc1Sc1ccc2c(/C=C/c3ccccn3)n[nH]c2c1"
  reported property: "IC50"
  data value: "> 100 µM"

Consider the molecule shown here: C/C(C=O)=C\c1ccccc1 What is its recorded IC50?
> 100 µM

Consider the molecule shown here: COc1ccc(/C=C/S(=O)(=O)c2ccc(Cl)cc2)cc1 What is its recorded IC50?
> 100 µM

Consider the molecule shown here: O=C(/C=C/c1ccc(O)cc1)c1ccc(O)cc1O What is its recorded IC50?
> 100 µM

Consider the molecule shown here: O=C(/C=C/c1cccc(Cl)c1)c1ccccc1 What is its recorded IC50?
10 to 100 µM

* * *

- study target: CRISPR/Cas9 from Streptococcus pyogenes (SpyCas9) (Streptococcus pyogenes serotype M1);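 note: Cell-based reporter with a SpyCas9 target site placed in EGFP, where NHEJ repair of the cut restores the reading frame, read-out is the share of EGFP-positive cells, lowered by inhibitors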
- assay overview: cell-based
pIC50: −log10 of the molar value.
reported property: pIC50

Example results:
- compound: "O=C(/C=C/c1ccccc1Br)c1ccccc1"
  pIC50: "4.00 to 5.00"
- compound: "O=C(/C=C\\n1cnc(-c2cc(C(F)(F)F)cc(C(F)(F)F)c2)n1)N1CC(F)(F)C1"
  pIC50: "5.00 to 6.00"
- compound: "O=S(=O)(/C=C/c1ccccc1)Oc1ccc(I)cc1"
  pIC50: "< 4.00"
- compound: "CC(C)c1ccc(OS(=O)(=O)/C=C/c2ccccc2)cc1"
  pIC50: "< 4.00"
- compound: "O=S(=O)(/C=C/c1ccccc1)N1CCN(Cc2ccccc2)CC1"
  pIC50: "< 4.00"
- compound: "O=S(=O)(/C=C/c1ccccc1)N1CCOCC1"
  pIC50: "< 4.00"

Consider the compound shown here: O=C(/C=C/c1ccc(O)cc1)c1ccccc1 What is its recorded pIC50?
4.00 to 5.00

Consider the compound shown here: CN(C)C/C=C/C(=O)O What is its recorded pIC50?
< 4.00

Consider the compound shown here: C=C(C)C(=O)N(CC)CC What is its recorded pIC50?
< 4.00

Consider the compound shown here: O=C(/C=C/c1cc(F)c(F)c(F)c1)c1ccccc1 What is its recorded pIC50?
4.00 to 5.00

Consider the compound shown here: COc1cc(/C=C/C(=O)N2CCC=CC2=O)cc(OC)c1OC What is its recorded pIC50?
5.00 to 6.00

Consider the compound shown here: O=C(/C=C\n1cnc(-c2cc(C(F)(F)F)cc(C(F)(F)F)c2)n1)NNc1cnccn1 What is its recorded pIC50?
> 6.00

Consider the compound shown here: CN(C)C(=O)/C=C/c1ccccc1 What is its recorded pIC50?
< 4.00

Consider the compound shown here: NC(=O)/C(=C/n1cnc(-c2cc(C(F)(F)F)cc(C(F)(F)F)c2)n1)c1cncnc1 What is its recorded pIC50?
5.00 to 6.00

Consider the compound shown here: O=S(F)(=Nc1ccc(Br)cc1)N1CCC(Cc2ccccc2)CC1 (stereo not shown) What is its recorded pIC50?
< 4.00

Consider the compound shown here: CN(C)C/C=C/C(=O)Nc1cc2c(Nc3ccc(F)c(Cl)c3)ncnc2cc1O[C@@H]1CCOC1 What is its recorded pIC50?
< 4.00

Consider the compound shown here: O=C(/C=C/c1ccc2c(c1)OCO2)c1ccccc1 What is its recorded pIC50?
< 4.00

Consider the compound shown here: O=C(O)/C=C/c1ccc(O)cc1 What is its recorded pIC50?
< 4.00

Consider the compound shown here: C=C(C)C(N)=O What is its recorded pIC50?
< 4.00

Consider the compound shown here: NC(=O)/C=C/c1ccccc1 What is its recorded pIC50?
< 4.00

Consider the compound shown here: O=C1C=CCC1 What is its recorded pIC50?
< 4.00

Consider the compound shown here: CC(C)(C)OC(=O)N1CCN(C(=O)/C=C/c2ccccc2)CC1 What is its recorded pIC50?
< 4.00

Data credit: patent US12534742B2
